Assay: Selectivity index, ratio of HA50 to human RCB to MIC of antifungal activity against Candida tropicalis ATCC 200956
Format: toxicity
Conditions: human red blood cells (RCB)
Recorded selectivity ratio, one value per entry.
READOUT_LABEL: selectivity ratio

COMPOUND	MEASURED_VALUE
C[C@@H]1OC(c2cc(Cl)c3ccccc3c2O)=NC1C(=O)Nc1ccc2ncsc2c1 (single isomer, unassigned)	≥ 1070
COc1ccc(O)c(C2=N[C@@H](C(=O)OCc3ccccc3)[C@@H](C)O2)c1	≥ 32
C#CCNC(=O)C1N=C(c2cc(Cl)c3ccccc3c2O)O[C@H]1C (single isomer, unassigned)	≥ 512
C[C@@H](O)[C@H](NC(=O)c1ccc2ccccc2c1O)C(=O)OCc1ccccc1	> 8
CCNC(=O)[C@H]1N=C(c2ccc3ccccc3c2O)O[C@H]1C	≥ 128
C[C@@H]1OC(c2cc(Cl)c3ccccc3c2O)=N[C@@H]1C(=O)OC/C=C/c1ccccc1	≥ 8
C[C@H]1OC(c2ccc(Br)cc2O)=N[C@H]1C(=O)OCc1ccccc1	≥ 128
C[C@H]1OC(c2ccc(N=[N+]=[N-])cc2O)=N[C@H]1C(=O)OCc1ccccc1	≥ 128
C[C@H]1OC(c2ccc(I)cc2O)=N[C@H]1C(=O)OCc1ccccc1	≥ 128
COC(=O)C1N=C(c2cc(Cl)c3ccccc3c2O)O[C@H]1C (single isomer, unassigned)	≥ 16
C[C@@H]1OC(c2cc(Cl)c3ccccc3c2O)=N[C@@H]1C(=O)OC[C@H]1COC(C)(C)O1	≥ 16

* * *

Recorded MIC, one value per entry.
Test system: Candida tropicalis
Assay: Antifungal activity against Candida tropicalis ATCC 200956 by CLSI standard M27 broth microdilution method
Assay type: functional
READOUT_LABEL: MIC (µg/mL)

COMPOUND	MEASURED_VALUE
COC(=O)C1N=C(c2cc(Cl)c3ccccc3c2O)O[C@H]1C (single isomer, unassigned)	0.25
OC(Cn1cncn1)(Cn1cncn1)c1ccc(F)cc1F [FLUCONAZOLE]	1
